# Test: reduction of polyQ htt aggregates in cells – imaging, exon1htt(103Q)mCFP cells, high-content imaging, primary screen (AID 483);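 note: compound exposure lasted 3 days before fixation; percent of the per-plate median nuclei count of sample wells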
# Cond: exon1htt(103Q)mCFP cell line, aggregate imaging, at 2 µM; measured here: cell count, toxicity
Recorded nuclei count, one value per entry.
Lab book: enter the figure in %, no units written.

Past entries and their recorded results:
>  <Compound>
COc1nc2ccc(C)cc2cc1-c1noc(-c2cccnc2)n1

>  <nuclei count (%)>
62.9

$$$$
>  <Compound>
Cc1cc2oc(=O)cc(CN3CCN(Cc4ccc5c(c4)OCO5)CC3)c2cc1C

>  <nuclei count (%)>
99.2

$$$$
>  <Compound>
CN(c1ccccc1)C(c1ccc(F)cc1)c1nnnn1CC1CCCO1 (stereo unspecified)

>  <nuclei count (%)>
100

$$$$
>  <Compound>
CCOc1cccc(Oc2ccc(C(F)(F)F)cn2)c1

>  <nuclei count (%)>
120

$$$$

Give the value of nuclei count reported for the following: "CCC(=O)Nc1ccc(F)c(Cl)c1" 108

Give the value of nuclei count reported for the following: O=C1c2cccnc2C(O)N1Cc1ccc(F)cc1 (stereo unspecified) 118
